tested on: NCI-H226 lung; experiment: NCI-60 one-dose screen, 48 h; settings: 10 µM unless noted
This is part of a sample that, as a whole, favours compounds with a hit. Of some 83,000 tested, about 20% had one in any assay. Activity calls are given as the source filed them. Rule for the calls: active = growth percent below 10; inactive = the rest.
Outcomes: active, inactive

compound: CSC1=Nc2c(c(C)c(-c3ccccc3)n2CCCCl)C2=NC(=O)CN12
class.label: inactive

compound: COC(=O)c1cc(=O)nc(N/N=C/c2ccccc2O)s1
class.label: inactive

compound: NCCCOc1cc(Cl)ccc1NC(=O)c1cc2ccccc2cc1OCCCN
class.label: active

compound: CCC(C)C1NC(=O)C(CC(C)C)NC(=O)C(C)NC(=O)C(C(C)C)NC(=O)C(CCCCN)NC(=O)C(CC(C)C)NC(=O)C(C(C)C)NC(=O)[C@H](C)NC(=O)C(C(C)CC)NC(=O)C(CCCN=C(N)N)NC(=O)C(CCCCN)NC(=O)C(CCCN=C(N)N)NC(=O)C(CCCCN)NC(=O)C([C@H](C)CC)NC(=O)C(CCCCN)NC1=O (stereo partly specified)
class.label: inactive

compound: COc1cc(-c2nn(-c3ccc(NC(=O)Nc4cc(C(F)(F)F)cc(C(F)(F)F)c4)cc3)cc2-c2ccncc2)ccc1Cl
class.label: inactive

compound: C=CCC(CCC(CC=C)C(=O)OCC)C(=O)OCC (stereo unspecified)
class.label: inactive

compound: O=S(=O)(Cc1cccc2c(CS(=O)(=O)c3ccc(Cl)cc3)cccc12)c1ccc(Cl)cc1
class.label: inactive

compound: CCCCCCCCCCC1OC(C)CC(C)O1 (stereo unspecified)
class.label: inactive

compound: CC(=O)OCC(=O)[C@@]1(O)[C@H](C)C[C@H]2[C@@H]3C=C(C)C4=Cc5c(cnn5-c5ccc(F)cc5)C[C@]4(C)[C@H]3[C@@H](O)C[C@@]21C
class.label: inactive

compound: COc1cc(NC(=O)CSc2nc3ccc(Cl)cc3c(=O)n2-c2ccc(F)cc2)cc(OC)c1OC
class.label: inactive

compound: COc1ccc2c(c1)/C(=C1/S/C(=N/c3nnc(C)s3)NC1=O)C(=O)N2Cc1ccc(Br)cc1
class.label: inactive

compound: O=c1c2c(c3ccccc3n1-c1ccccc1)NC(=S)NC2c1ccccc1 (stereo unspecified)
class.label: inactive

compound: COc1ccc2cc(C(C)C(=O)Nc3ccc(S(=O)(=O)Nc4cc(C)on4)cc3)ccc2c1 (stereo unspecified)
class.label: inactive

compound: COC1NC(Cl)=C(C#N)C(C#N)(C#N)C1(C)C (stereo unspecified)
class.label: inactive

compound: Cc1ccc(C(=O)Nc2ccc(CN3CCN(C)CC3)c(C(F)(F)F)c2)cc1C#Cc1cnc(N)c2ccc(F)cc12
class.label: active

compound: N=C(N)c1ccc(-c2ccc(-c3cc(Cl)cc(Cl)c3)s2)cc1
class.label: active

###

Tested on: SK-MEL-5 melanoma
Assay: NCI-60 one-dose screen, 48 h
Conditions: 10 µM unless noted
Procedure: Growth inhibition of the SK-MEL-5 human tumor cell line is measured as a screen for anti-cancer activity. Cells are grown in 96 well plates and exposed to the test compound for 48 hours. Compounds are tested at a single concentration, which is 10^-5 M for most compounds. The reported endpoint is percent growth (GI% or GIPRCNT), where numbers from 0 - 100% represent growth inhibition, and numbers from -100% - 0 represent cell death. For example, a value of 40 represents 60% growth inhibition. […]
About 83,000 compounds went through this panel and 20% of them were active in at least one assay; those are over-represented in the sample as a whole. The source made the active and inactive calls. How the source made its calls: active means growth percent below 10; inactive means the rest.
Outcomes: label 1 for active, label 0 for inactive

compound: FC(F)(F)c1cccc(-c2[nH]ncc2-c2nnnn2-c2ccccc2)c1
class.label: label 0
--
compound: COc1ccc2c(c1)/C(=C/c1c(-c3cc(OC)c(OC)c(OC)c3)nc3sccn13)C(=O)N2
class.label: label 0
--
compound: CNc1nc2ncn(C)c2c(=O)[nH]1
class.label: label 0
--
compound: Cc1c(O)c(N=Nc2ccc(C(=O)O)c(O)c2)c2ccccc2c1O
class.label: label 0
--
compound: CCOc1ccc(N(C)c2ccc(/C=C/C3=[N+](C)c4ccccc4C3(C)C)cc2)cc1
class.label: label 1
--
compound: COc1cc(CNC(=O)CCCC/C=C/C(C)C)ccc1OCc1nnc(Nc2ccccc2F)o1
class.label: label 0
--
compound: COc1cc(-c2nc3c(c(C)nc4c3nnn4-c3ccccc3)c(=O)o2)cc(OC)c1OC
class.label: label 0
--
compound: Oc1ccc2ccccc2c1/C=N\Nc1ccccn1
class.label: label 0
--
compound: C=CC1CN2CCC1CC2C(O)c1ccnc2ccc(OC)cc12 (stereo not given)
class.label: label 0
--
compound: CCCCCCCCCCCCCCCCCC1=NCCN1CS(=O)(=O)O
class.label: label 0
--
compound: COC(=O)c1cc(Nc2ccc(O)c3c2C(=O)c2c([N+](=O)[O-])ccc(O)c2C3=O)cc(C(=O)OC)c1
class.label: label 1
--
compound: C[n+]1c2ccccc2c(Nc2ccc(NS(=O)(=O)CCCCN=C(N)N)cc2)c2ccc(N)cc21
class.label: label 0
--
compound: Cc1c(C(N)=O)sc2c1c(=O)n(Cc1ccccc1)c1nnc(S(C)(=O)=O)n21
class.label: label 0
--
compound: O=C(Nc1ccc(-n2cc(-c3ccncc3)c(-c3ccc(Cl)c(O)c3)n2)cc1)c1cc(C(F)(F)F)cc(C(F)(F)F)c1
class.label: label 0
--
compound: COC(=O)c1ccc2[nH]c(O)c(C(=Nc3ccc(N(C)C(=O)CN4CCN(C)CC4)cc3)c3ccc4c(c3)OCO4)c2c1
class.label: label 0
--
compound: Cc1ccccc1-n1c(C)nc2cc(NC(=O)c3ccc(Cl)cc3)ccc2c1=O
class.label: label 1
--
compound: CCn1cnc(C[C@H](NC(=O)[C@@H](NC(=O)Nc2cc(C(F)(F)F)cc(C(F)(F)F)c2)C(C)(C)C)C(=O)OC)c1
class.label: label 1
--
compound: COC1=CC(c2ccc[nH]2)=N/C1=C\c1[nH]c(C)c(C(=O)CCCCC(=O)NC(C)(C)C)c1C
class.label: label 0
--
compound: COc1cc(Cn2ccc3c2-c2oncc2CC3)cc(OC)c1
class.label: label 0
--
compound: CC(=O)N1CCN(CCNC(=O)n2cc(-c3ccncc3)c(-c3cc(O)cc(Cl)c3)n2)CC1
class.label: label 0
--
compound: COc1cc2ncnc(-n3ncc4cc(NC(=O)Nc5ccc(Cl)c(C)c5)ccc43)c2cc1OC
class.label: label 0
--
compound: CCOC(=O)c1c(C)oc2ncnc(Nc3ccc(NC(=O)Nc4ccc(CC)cc4)cc3)c12
class.label: label 0
--
compound: N=c1c2c(=O)n3c(nc2nc2sc4ccc(Cl)cc4n12)-c1ccccc1Sc1ccccc1-3
class.label: label 1
--
compound: COc1cc(-c2nn(-c3ccc(NC(=O)c4ccc(Cl)c(Cl)c4)cc3)cc2-c2ccncc2)ccc1Cl
class.label: label 0
--
compound: C=CN(C)S(C)(=O)=O
class.label: label 0
--
compound: O=C(Nc1cccc(Cn2c(=O)[nH]c3ccc(Oc4ncccn4)cc3c2=O)c1)c1cc(Cl)cc(Cl)c1
class.label: label 0
--
compound: COc1cccc(-c2cc(-c3cc4ccccc4oc3=O)nc(N)n2)c1
class.label: label 0
--
compound: Cc1ncc(C(=O)Nc2ccc(CN3CCN(C)CC3)c(C(F)(F)F)c2)cc1C#Cc1cnc(NC2CC2)c2ncccc12
class.label: label 1
--
compound: COC(=O)c1c[n+]([O-])ccc1OC
class.label: label 0
--
compound: COC(=O)CC(=O)C(=O)OC
class.label: label 0
--
compound: CCS(=O)(=O)N[C@@H]1O[C@H](COC(C)=O)C(OC(C)=O)[C@H](OC(C)=O)C1OC(C)=O (stereo not given in full)
class.label: label 0
--
compound: COc1cc2c(cc1OC)C(Cc1cc(OC)c(OC)cc1[N+](=O)[O-])=NCC2
class.label: label 0
--
compound: O=C(/C=C/c1c[nH]c2ccccc12)c1cc2ccccc2o1
class.label: label 0
--
compound: O=C1C(Br)=CC2C1C1C3CCC3C2(Br)C12OCCO2 (stereo not given)
class.label: label 0
--
compound: COc1ccc(-c2nc(SCC(C)C)nc(Nc3ccc(C(=O)O)cc3)c2C#N)cc1
class.label: label 0

###

# growth annotations
test system: NCI-H322M lung; test: NCI-60 one-dose screen, 48 h (100 = growth as untreated, 0 = no growth, -100 = all killed); details: 10 µM unless noted
This is part of a sample that, as a whole, favours compounds with a hit. Of some 83,000 tested, about 20% had one in any assay.
reported.property: growth (%)

molecule: O=C(/C(Br)=C/c1ccccc1)c1ccccc1
measurement.target: NCI-H322M lung
reported.property: growth
reported.measurement: 107

molecule: Clc1ccc(I)c2ccccc12
measurement.target: NCI-H322M lung
reported.property: growth
reported.measurement: 95.3

molecule: CCN(CC)C(=O)C1(C)CCCC2(C)c3cc(OC(C)=O)ccc3CCC12 (configuration not stated)
measurement.target: NCI-H322M lung
reported.property: growth
reported.measurement: 83.5

molecule: CC(O)CN(CCO)CCN(CCO)CC(C)O (configuration not stated)
measurement.target: NCI-H322M lung
reported.property: growth
reported.measurement: 103

molecule: CCCC(=O)NNc1[nH]c(-c2cc(OC)c(OC)c(OC)c2)cc1C(=O)OCC
measurement.target: NCI-H322M lung
reported.property: growth
reported.measurement: 145

molecule: COc1ccc(-c2nc(SCC(C)C)nc(Nc3ccc(C)cc3)c2C#N)cc1
measurement.target: NCI-H322M lung
reported.property: growth
reported.measurement: 52.9

molecule: Cn1c2c(cc(S(=O)(=O)c3ccccc3)c1=O)CCc1c-2cnn1-c1ccc(Cl)cc1
measurement.target: NCI-H322M lung
reported.property: growth
reported.measurement: 38.9

molecule: CCN(CC)CCOC(=O)c1cccnc1
measurement.target: NCI-H322M lung
reported.property: growth
reported.measurement: 100

molecule: CCCCCCCCCCC(C[N+](C)(C)C/C=C/c1ccccc1)C(O)c1ccccc1 (configuration not stated)
measurement.target: NCI-H322M lung
reported.property: growth
reported.measurement: 46.7

molecule: N#Cc1c2ncccc2c2nnc3cc(Cl)c(Cl)cc3n12
measurement.target: NCI-H322M lung
reported.property: growth
reported.measurement: 100

molecule: C=C(NC(=O)[C@H](C(C)C)N(C)c1cccc2[nH]ccc12)C(=O)OC
measurement.target: NCI-H322M lung
reported.property: growth
reported.measurement: 100

molecule: OCCN1CCCN(CCCN2c3ccccc3Sc3ccc(C(F)(F)F)cc32)CC1
measurement.target: NCI-H322M lung
reported.property: growth
reported.measurement: 73.6

molecule: C=CN(C)S(C)(=O)=O
measurement.target: NCI-H322M lung
reported.property: growth
reported.measurement: 39.5

molecule: CC(C)C(=O)c1ccc(Cl)s1
measurement.target: NCI-H322M lung
reported.property: growth
reported.measurement: 91.5

molecule: CCCNC(=O)Oc1ccc(/C(=C(/C)Cc2ccc(OC)cc2)c2ccc(OCCN3CCCCC3)cc2)cc1
measurement.target: NCI-H322M lung
reported.property: growth
reported.measurement: 81.5

molecule: CCCC(=O)Nc1ccccc1C(=O)O
measurement.target: NCI-H322M lung
reported.property: growth
reported.measurement: 107

molecule: Nc1nc2c(c3ncncc13)C(c1cccc(C(F)(F)F)c1)Cc1ncncc1-2 (configuration not stated)
measurement.target: NCI-H322M lung
reported.property: growth
reported.measurement: 39

Every entry's value here was drawn from PubChem BioAssay (NCI).
